Source: patent US20250353833A1

target: DPP2 (Homo sapiens (Human)); assay: DPP2 enzyme inhibition, IC50 measurement (Lys-Ala-pNA release); type: biochemical; settings: Table 2; mean ± SD (n = 3)
MEASURED ENDPOINT: IC50

Consider the reported IC50 for these molecules:
[
  {
    "MOLECULE": "O=C(CNC12CC3CC(C1)CC(OCc1ccc(F)cc1F)(C3)C2)N1Cc2ccccc2C1 [Compound 5r]",
    "IC50": "> 5 µM"
  },
  {
    "MOLECULE": "O=C(CNC12CC3CC(CC(O)(C3)C1)C2)N1Cc2ccccc2C1 [Compound 5p]",
    "IC50": "> 5 µM"
  },
  {
    "MOLECULE": "O=C(CNC12CC3CC(C1)CC(OCc1ccccc1)(C3)C2)N1Cc2ccccc2C1 [Compound 5q]",
    "IC50": "> 5 µM"
  },
  {
    "MOLECULE": "CCCCCCCCOC12CC3CC(CC(NCC(=O)N4Cc5ccccc5C4)(C3)C1)C2 [Compound 5u]",
    "IC50": "> 5 µM"
  },
  {
    "MOLECULE": "CC(C)OC12CC3CC(CC(NCC(=O)N4Cc5ccccc5C4)(C3)C1)C2 [Compound 5t]",
    "IC50": "> 5 µM"
  }
]

Note: attention shifts to another entry.
Recorded IC50 of CCCCOC12CC3CC(CC(NCC(=O)N4Cc5ccccc5C4)(C3)C1)C2 [Compound 5s] , please.
> 5 µM
